Target: Human NK1 Receptor (Homo sapiens)
Construct: endogenous in cells; host or cells: Human lymphoma IM9 cells (whole cells)
Sequence (P25103 whole entry): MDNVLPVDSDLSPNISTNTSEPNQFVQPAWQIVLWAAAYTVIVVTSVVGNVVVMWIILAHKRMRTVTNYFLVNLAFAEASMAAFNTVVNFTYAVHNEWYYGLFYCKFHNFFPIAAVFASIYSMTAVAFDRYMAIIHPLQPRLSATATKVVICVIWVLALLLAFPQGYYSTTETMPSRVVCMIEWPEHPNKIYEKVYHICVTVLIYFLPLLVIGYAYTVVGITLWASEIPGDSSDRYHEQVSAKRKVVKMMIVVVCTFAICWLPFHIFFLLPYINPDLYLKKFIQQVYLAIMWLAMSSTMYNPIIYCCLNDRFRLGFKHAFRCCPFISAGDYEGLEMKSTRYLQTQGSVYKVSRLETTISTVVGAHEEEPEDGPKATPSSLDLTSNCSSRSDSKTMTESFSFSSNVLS
Experiment: In Vitro Human NK1 Receptor Binding Assay ([125I]Bolton-Hunter substance P displacement, IM9 cells)
Settings: Table 5; [125I]Bolton-Hunter substance P displacement, human IM9 cells; read-out: IC50 (nM) hNK1
Description: They have been evaluated in an NK1-receptor binding assay which is described below. Human lymphoma IM9 cells were grown in RPMI 1640 culture medium supplemented with 10% fetal calf serum and 2 mM glutamine and maintained under an atmosphere of 5% CO2. […] Filters were washed with 6×1 ml ice-cold Tris HCl (50 mM, pH 7.4) and radioactivity bound determined using a gamma couter. Results were analyzed using iterative curve fitting procedures in RS1 or Graphpad Inplot.
READOUT_TYPE: IC50 (nM)

CC(NC(=O)C(Cc1c[nH]c2ccccc12)NCc1cccc(Cl)c1)c1ccccc1 (stereo not shown) [compound 400]	13
CC(NC(=O)C(Cc1c[nH]c2ccccc12)NCCCc1ccccc1)c1ccccc1 (stereo not shown) [compound 403]	3910
CC(NC(=O)C(Cc1c[nH]c2ccccc12)NCc1ccc(Oc2ccccc2)cc1)c1ccccc1 (stereo not shown) [compound 384]	2350
